Kindly state pKd for each of the entries shown.
- Measured target: Peroxisome proliferator-activated receptor gamma (Homo sapiens)
- Sequence (P37231 whole entry, the tested form may be a part): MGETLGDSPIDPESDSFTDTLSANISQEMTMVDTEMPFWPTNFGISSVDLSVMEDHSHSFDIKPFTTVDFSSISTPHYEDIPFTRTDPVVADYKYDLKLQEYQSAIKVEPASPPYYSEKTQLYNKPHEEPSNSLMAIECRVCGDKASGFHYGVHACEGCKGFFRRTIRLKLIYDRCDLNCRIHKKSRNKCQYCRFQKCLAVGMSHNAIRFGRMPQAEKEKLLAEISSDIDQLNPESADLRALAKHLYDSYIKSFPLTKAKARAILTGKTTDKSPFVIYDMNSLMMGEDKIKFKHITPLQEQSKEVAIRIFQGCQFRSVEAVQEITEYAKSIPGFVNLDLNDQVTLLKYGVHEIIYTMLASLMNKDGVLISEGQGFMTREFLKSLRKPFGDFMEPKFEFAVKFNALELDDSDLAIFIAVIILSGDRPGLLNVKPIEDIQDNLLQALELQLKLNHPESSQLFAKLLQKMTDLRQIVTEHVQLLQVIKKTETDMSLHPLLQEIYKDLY
- Procedure summary: Binding affinity to PPAR gamma LBD (203 to 476 residues) (unknown origin) extracted from Escherichia coli BL21 (DE3) cells assessed as dissociation constant in presence of rosiglitazone by Isothermal titration calorimetry method
Numbers only, as −log10 of the molar value.

- Compound: "C/C=C(\\C)C(=O)OC[C@@]12[C@@H](OC(C)=O)C[C@@H](C)[C@](C)(CCC3=CC(=O)OC3)[C@H]1CCC[C@]21CO1"
  pKd: 4.10

Q: Need pKd of "C/C=C(\C)C(=O)O[C@@H](C[C@@]1(C)[C@H](C)C[C@H](OC(C)=O)[C@]2(COC(C)=O)[C@@H]1CCC[C@]21CO1)C1=CC(=O)OC1" , thanks.
A: 3.90

---

- System: BMDM
- Procedure summary: Cytotoxicity against mouse Bone marrow macrophage at 10 uM measured after 72 hrs by MTT assay
- Type: toxicity, cell-based

- Compound: "COC(=O)[C@@H]1CCC[C@@H]2[C@@](C)(C[C@H](OC(=O)C(C)C)C3=CC(=O)OC3)[C@H](C)C[C@H](O)[C@]21C"
  Activity: "Non-Toxic"
- Compound: "C/C=C(\\C)C(=O)OC[C@@]12[C@@H](OC(C)=O)C[C@@H](C)[C@](C)(CCC3=CC(=O)OC3)[C@H]1CCC[C@]2(O)CCl [AJUGACUMBIN A CHLOROHYDRIN]"
  Activity: "Non-Toxic"
- Compound: "C/C=C(\\C)C(=O)OC[C@@]12[C@@H](OC(C)=O)C[C@@H](C)[C@](C)(CCC3=CC(=O)OC3)[C@H]1CCC[C@]2(O)COC(C)=O"
  Activity: "Non-Toxic"
